test system: Schistosoma mansoni; assay: High throughput screening of compounds against Schistosoma mansoni motility; assay type: functional; parameters: dose or concentration left out as unconfirmed
Provide the reported Percent Effect of each item.
Response body: numeric value in %, unit text excluded.

The value of Percent Effect measured for the compound CN(C)C(=O)CNC(=O)Nc1cccc(Cl)c1SC(F)F turned out to be -29.89

The value of Percent Effect measured for the compound Cc1ccc(CC(=O)N2CCOC(c3nc(C)n[nH]3)C2)cn1 (stereo not drawn) turned out to be 13.87

The value of Percent Effect measured for the compound Cc1nc(C)n(CC2CCCN2CC(=O)NCc2ccco2)n1 (stereo not drawn) turned out to be -29.3

The value of Percent Effect measured for the compound Cc1cnn(CC2CN(CCc3ccncc3)CCO2)c1 (stereo not drawn) turned out to be -83.94

The value of Percent Effect measured for the compound O=C(CCc1ccc(=O)[nH]n1)N1CCCC(COc2ccc(F)cc2)C1 (stereo not drawn) turned out to be 4.924

The value of Percent Effect measured for the compound Cn1c(C(F)(F)F)nn(CCNC(=O)CSCc2ccccc2)c1=O turned out to be -2.069

The value of Percent Effect measured for the compound CSCC(CCO)NC(=O)Nc1cc(Br)ccc1C (stereo not drawn) turned out to be -20.66

The value of Percent Effect measured for the compound O=C(NCC(O)c1ccccc1Cl)c1cccc(-n2cnnn2)c1 (stereo not drawn) turned out to be -46.05

The value of Percent Effect measured for the compound CCc1ccc(C(=O)N2CCCC(n3cncn3)C2)o1 (stereo not drawn) turned out to be -35.91

The value of Percent Effect measured for the compound Cn1c(C(F)(F)F)nn(CCNC(=O)NCc2ccccc2)c1=O turned out to be 16.6

The value of Percent Effect measured for the compound O=C(CCc1cscn1)NS(=O)(=O)c1ccc2c(c1)CCC2 turned out to be 28.79

The value of Percent Effect measured for the compound CSC(C)C(=O)NCCCc1cc(N)n(-c2ccccc2)n1 (stereo not drawn) turned out to be -59.95

The value of Percent Effect measured for the compound CN(C)C(=O)c1ccc2c(c1)N(C)C(CC(=O)NCc1ccno1)CO2 (stereo not drawn) turned out to be 0.8383

The value of Percent Effect measured for the compound COc1ccc(C2CCCN2C(=O)NCCNc2ncccn2)cc1 (stereo not drawn) turned out to be -55.34

The value of Percent Effect measured for the compound CN(CCc1cccs1)C1CCCN(Cc2noc(C3CC3)n2)C1 (stereo not drawn) turned out to be -35.96

The value of Percent Effect measured for the compound O=C1CC2(CCN(CCO)CC2)CN1Cc1cc(F)cc(F)c1 turned out to be 8.592

The value of Percent Effect measured for the compound COc1ccc(OC)c(CNCCc2cc(F)cc3c2OCOC3)c1 turned out to be 89.81

The value of Percent Effect measured for the compound CCCOc1cc(C)ccc1NC(=O)NCCC(=O)N(C)C turned out to be -17.12
